Each recorded value in this set is attributed to ChEMBL document CHEMBL1148788.

biological target: Neuronal acetylcholine receptor; alpha4/beta2 (Rattus norvegicus, UniProt P09483+P12390); experiment: Displacement of [3H]epibatidine from rat recombinant alpha-4-beta-2 nAChR in HEK293 cell line; format: cell-based
Sequence (P09483 whole entry): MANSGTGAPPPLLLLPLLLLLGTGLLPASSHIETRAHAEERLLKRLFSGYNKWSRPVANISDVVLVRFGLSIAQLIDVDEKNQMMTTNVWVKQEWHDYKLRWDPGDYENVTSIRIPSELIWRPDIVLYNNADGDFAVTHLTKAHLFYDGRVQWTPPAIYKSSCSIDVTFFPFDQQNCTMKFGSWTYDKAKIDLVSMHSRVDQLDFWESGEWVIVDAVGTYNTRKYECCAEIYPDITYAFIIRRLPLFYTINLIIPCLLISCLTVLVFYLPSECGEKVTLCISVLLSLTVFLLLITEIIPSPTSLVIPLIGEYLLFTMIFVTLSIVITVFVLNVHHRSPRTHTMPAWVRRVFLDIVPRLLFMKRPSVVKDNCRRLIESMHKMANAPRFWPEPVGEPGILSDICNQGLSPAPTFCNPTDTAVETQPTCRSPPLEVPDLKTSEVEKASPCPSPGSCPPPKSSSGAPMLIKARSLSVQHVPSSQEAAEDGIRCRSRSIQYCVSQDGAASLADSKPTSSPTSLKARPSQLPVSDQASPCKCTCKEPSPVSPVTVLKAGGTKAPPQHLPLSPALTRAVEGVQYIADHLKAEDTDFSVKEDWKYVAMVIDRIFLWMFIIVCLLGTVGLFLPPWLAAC
Sequence (P12390 whole entry): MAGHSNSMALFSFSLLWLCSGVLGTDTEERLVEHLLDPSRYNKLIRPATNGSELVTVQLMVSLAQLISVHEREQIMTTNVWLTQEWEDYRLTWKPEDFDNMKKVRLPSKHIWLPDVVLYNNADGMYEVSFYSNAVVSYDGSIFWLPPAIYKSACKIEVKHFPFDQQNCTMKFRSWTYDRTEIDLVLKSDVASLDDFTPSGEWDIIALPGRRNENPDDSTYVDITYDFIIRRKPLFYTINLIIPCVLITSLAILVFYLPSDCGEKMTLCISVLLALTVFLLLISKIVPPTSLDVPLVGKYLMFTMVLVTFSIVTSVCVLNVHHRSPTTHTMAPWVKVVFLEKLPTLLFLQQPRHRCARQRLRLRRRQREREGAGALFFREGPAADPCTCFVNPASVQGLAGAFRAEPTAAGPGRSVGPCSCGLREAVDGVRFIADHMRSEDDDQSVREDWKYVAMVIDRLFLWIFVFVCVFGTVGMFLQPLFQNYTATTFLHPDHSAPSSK
pKi: −log10 of the molar value.
measure: pKi

Ask: Give the reported pKi for this compound. C[N+](C)(C)Cc1c2n(c3ccccc13)Cc1c(C[N+](C)(C)C)c3ccccc3n1C2.[I-].[I-]
Reply: < 4.00

###

system: tsA201; assay: Displacement of [3H]methyllycaconitine from chimeric alpha-7nAChR W55A/Y195A mutant /5HT3A receptor in tsA201 cells; assay type: cell-based; details: Homo sapiens
Activity calls are given as the source filed them. No cut-off for these calls is given here.
measure: Activity

C[N+]12CC[C@@H]3[C@@H]4/C(=C\N5c6ccccc6[C@@]67CC[N+]8(C)CC9=CCO[C@H]([C@@H]([C@H]56)[C@H]9C[C@@H]78)N4c4ccccc4)[C@@H](C[C@@H]31)/C(=C\CO)C2.[I-].[I-] (some centres not stated) ... inactive
C[N+]12CC[C@@H]3[C@@H]4[C@@H]5[C@@H](OCC=C(C1)[C@@H]5C[C@@H]32)N1c2ccccc2[C@@]23CC[N+]5(C)CC6=CCO[C@H]([C@@H]([C@H]12)[C@H]6C[C@@H]35)N4c1ccccc1.[I-].[I-] (some centres not stated) ... inactive

###

molecular target: Neuronal acetylcholine receptor subunit alpha-7 (Homo sapiens, UniProt P36544); test: Displacement of [3H]methyllycaconitine from human alpha-7 in tsA201 cells coexpressed with 5HT3A receptor; assay type: cell-based; details: read-out: pKi (converted)
Sequence (P36544 whole entry): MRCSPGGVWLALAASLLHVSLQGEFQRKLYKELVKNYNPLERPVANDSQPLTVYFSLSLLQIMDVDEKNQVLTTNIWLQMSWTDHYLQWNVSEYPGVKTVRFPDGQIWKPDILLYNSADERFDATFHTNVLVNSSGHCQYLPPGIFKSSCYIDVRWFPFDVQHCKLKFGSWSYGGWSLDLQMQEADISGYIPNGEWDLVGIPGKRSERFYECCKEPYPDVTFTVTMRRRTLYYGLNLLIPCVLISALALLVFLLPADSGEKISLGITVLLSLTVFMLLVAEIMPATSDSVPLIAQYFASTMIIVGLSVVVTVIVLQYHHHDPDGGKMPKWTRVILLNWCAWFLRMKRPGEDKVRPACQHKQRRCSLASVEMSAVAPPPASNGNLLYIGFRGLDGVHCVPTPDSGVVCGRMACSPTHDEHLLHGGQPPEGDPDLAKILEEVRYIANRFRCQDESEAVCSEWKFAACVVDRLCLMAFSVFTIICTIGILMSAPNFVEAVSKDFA
We label by threshold. Values of Ki strictly beneath 100 nM are t. Values of 100 nM and up are f.

Ask: In plain terms, does O=[N+]([O-])c1ccc(C[N+]23CCC4[C@@H]5/C(=C\N6c7ccccc7[C@@]78CC[N+]9(Cc%10ccc([N+](=O)[O-])cc%10)CC%10=CCO[C@H]([C@@H]([C@H]67)[C@H]%10C[C@@H]89)N5c5ccccc5)[C@@H](C[C@@H]42)/C(=C\CO)C3)cc1.[Br-].[Br-] (stereo not given in full) come in under 100 nM for Ki?
Reply: f

Ask: Field: below-cutoff. Rule: recorded Ki strictly less than 100 nM. Subject: COc1ccc(C[N+]23CC[C@@H]4[C@@H]5/C(=C\N6c7ccccc7[C@@]78CC[N+]9(Cc%10ccc(OC)c(OC)c%10)CC%10=CCO[C@H]([C@@H]([C@H]67)[C@H]%10C[C@@H]89)N5c5ccccc5)[C@@H](C[C@@H]42)/C(=C\CO)C3)cc1OC.[Cl-].[Cl-] (stereo not given in full)
Reply: f

Ask: Could you please tell me whether Ki recorded for C[N+]12CCC34c5ccccc5N5/C=C6/[C@H]7C[C@H]8[C@@]9(CC[N+]8(C)C/C7=C/CO)c7ccccc7N(/C=C(/[C@@H](C[C@@H]31)/C(=C\CO)C2)[C@H]54)[C@@H]69.[Cl-].[Cl-] (stereo not given in full) is less than 100 nM?
Reply: f

Ask: Here's an entry: C=CC[N+]12CC[C@@]34c5ccccc5N5/C=C6/[C@H]7C[C@H]8[C@@]9(CC[N@@+]8(CC=C)C/C7=C/CO)c7ccccc7N(/C=C(/[C@@H](C[C@@H]31)/C(=C\CO)C2)[C@H]54)[C@@H]69 (stereo not given in full) . Is its Ki below 100 nM?
Reply: f

Ask: Is 100 nM strictly greater than the molecule's reported Ki? molecule: CCN1C[C@]2(COC(=O)c3ccccc3N3C(=O)C[C@H](C)C3=O)CC[C@H](OC)[C@@]34[C@@H]5C[C@H]6[C@H](OC)[C@@H]5[C@](O)(C[C@@H]6OC)[C@](O)([C@@H](OC)[C@H]23)[C@@H]14
Reply: t
